Sourced from ChEMBL document CHEMBL3638030

ASSAY SYSTEM: Voltage-dependent L-type calcium channel subunit alpha-1C (Cavia porcellus, UniProt O35505)
Sequence (O35505 whole entry): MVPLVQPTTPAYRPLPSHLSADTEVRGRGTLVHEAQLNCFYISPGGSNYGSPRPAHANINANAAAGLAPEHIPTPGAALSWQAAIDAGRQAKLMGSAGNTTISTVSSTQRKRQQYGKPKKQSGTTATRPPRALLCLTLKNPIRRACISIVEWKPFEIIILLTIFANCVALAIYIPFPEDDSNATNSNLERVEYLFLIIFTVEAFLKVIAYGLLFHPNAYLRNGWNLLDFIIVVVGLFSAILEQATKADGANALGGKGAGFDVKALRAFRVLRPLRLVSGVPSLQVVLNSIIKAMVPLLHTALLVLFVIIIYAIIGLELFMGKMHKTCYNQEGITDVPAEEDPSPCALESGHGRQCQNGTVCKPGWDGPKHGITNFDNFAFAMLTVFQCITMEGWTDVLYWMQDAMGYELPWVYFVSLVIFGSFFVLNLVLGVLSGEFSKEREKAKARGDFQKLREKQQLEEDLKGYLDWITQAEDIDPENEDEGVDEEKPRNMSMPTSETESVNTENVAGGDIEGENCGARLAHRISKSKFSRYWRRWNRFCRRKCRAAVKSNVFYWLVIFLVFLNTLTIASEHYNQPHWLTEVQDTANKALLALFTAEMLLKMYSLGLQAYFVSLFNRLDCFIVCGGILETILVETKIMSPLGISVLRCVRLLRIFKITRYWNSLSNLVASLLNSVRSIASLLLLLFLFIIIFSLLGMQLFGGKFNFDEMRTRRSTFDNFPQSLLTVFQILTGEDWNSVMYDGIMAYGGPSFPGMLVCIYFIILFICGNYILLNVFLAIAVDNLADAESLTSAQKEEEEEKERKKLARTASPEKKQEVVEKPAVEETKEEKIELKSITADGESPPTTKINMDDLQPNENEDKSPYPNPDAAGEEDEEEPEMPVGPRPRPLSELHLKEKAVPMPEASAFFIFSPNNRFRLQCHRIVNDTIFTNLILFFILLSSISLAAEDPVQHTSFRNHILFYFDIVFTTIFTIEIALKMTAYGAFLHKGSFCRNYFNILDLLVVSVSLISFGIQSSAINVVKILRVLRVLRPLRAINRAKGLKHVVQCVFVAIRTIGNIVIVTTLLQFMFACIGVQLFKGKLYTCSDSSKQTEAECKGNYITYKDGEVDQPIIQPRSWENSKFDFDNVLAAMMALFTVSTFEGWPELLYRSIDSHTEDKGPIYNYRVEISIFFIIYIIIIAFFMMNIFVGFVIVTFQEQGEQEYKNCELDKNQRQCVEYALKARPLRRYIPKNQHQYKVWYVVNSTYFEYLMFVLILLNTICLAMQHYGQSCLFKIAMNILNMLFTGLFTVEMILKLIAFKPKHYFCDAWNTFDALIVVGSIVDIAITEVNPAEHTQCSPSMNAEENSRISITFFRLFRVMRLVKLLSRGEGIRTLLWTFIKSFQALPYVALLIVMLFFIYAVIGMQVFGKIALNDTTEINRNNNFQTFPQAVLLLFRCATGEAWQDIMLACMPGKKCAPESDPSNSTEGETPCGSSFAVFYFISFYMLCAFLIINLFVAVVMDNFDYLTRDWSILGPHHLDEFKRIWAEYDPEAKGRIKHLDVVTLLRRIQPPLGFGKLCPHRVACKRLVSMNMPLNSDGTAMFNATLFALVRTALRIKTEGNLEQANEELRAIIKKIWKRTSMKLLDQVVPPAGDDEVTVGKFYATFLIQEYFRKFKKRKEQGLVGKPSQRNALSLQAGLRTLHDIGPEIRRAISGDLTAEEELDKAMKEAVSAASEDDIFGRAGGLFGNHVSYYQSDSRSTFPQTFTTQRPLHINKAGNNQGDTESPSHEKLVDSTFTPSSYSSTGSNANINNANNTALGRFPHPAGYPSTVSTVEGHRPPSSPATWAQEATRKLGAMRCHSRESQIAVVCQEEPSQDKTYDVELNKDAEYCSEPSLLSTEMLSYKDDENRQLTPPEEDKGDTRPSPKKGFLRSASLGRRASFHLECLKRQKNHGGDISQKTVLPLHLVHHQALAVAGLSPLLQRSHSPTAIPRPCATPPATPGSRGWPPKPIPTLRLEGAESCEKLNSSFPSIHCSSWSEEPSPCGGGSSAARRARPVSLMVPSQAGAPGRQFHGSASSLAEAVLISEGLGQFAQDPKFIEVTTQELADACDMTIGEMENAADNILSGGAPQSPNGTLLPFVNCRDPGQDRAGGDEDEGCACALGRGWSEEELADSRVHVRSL
METHOD NOTES: Inhibition of Cav1.2 calcium current measured using whole cell patch clamp in guinea pig ventricular myocytes
Format: functional, cell-based, Heart, Ventricular myocyte
Parameters: ca sol conc 1.8 mM

{"COMPOUND": "CCC(C)c1ccccc1OC(=O)NC (centres undefined)", "IC50": "520 µM"}
{"COMPOUND": "COc1cccc(/C=C/CN2CCC(=C3c4ccccc4C=Cc4ccccc43)CC2)c1[N+](=O)[O-]", "IC50": "4.91 µM"}
{"COMPOUND": "COc1ccc2c(c1)CN(C(=O)CCN1CCC(Cc3ccccc3)CC1)CCS2", "IC50": "3 µM"}
{"COMPOUND": "CN1CCC(=C2c3ccccc3C=Cc3ccccc32)CC1", "IC50": "42.2 µM"}
